- assayRemarks: qHTS Assay for Identification of Small Molecule Antagonists for NFkB Signaling Pathway (AID 895)
- testSettings: NFkB beta-lactamase reporter cells, FRET ratio 460/530, stimulated with 10 pM TNF alpha; series mostly up to 38.3 µM
Records with an inconclusive call do not appear. Activity calls are given as the source filed them. The call rests on the fitted dose curve; in most records, active means well fitted inhibition curve with a large enough effect in the signal ratio, with a control signal flat (not every such curve was filed as active); inconclusive means small, poorly fitted or top-dose-only effect, or effect the other way, or a change in a side signal; inactive means flat fitted curve, though single readings scatter; the % refers to the signal ratio.
Possible outcomes: 1 = active, 0 = inactive

1. O=c1ccc2ccc(O)c(O)c2o1: 0
2. NCCCCNCCCN: 0
3. COc1ccc2cc([C@H](C)C(=O)O)ccc2c1: 0
4. C[C@H](Cc1ccc(O)c(O)c1)[C@@H](C)Cc1ccc(O)c(O)c1: 1

====

- assayRemarks: qHTS profiling of the MIPE4 collection as inhibitors of Plasmodium falciparum (DD2) proliferation (AID 743345)
- testSettings: P. falciparum Dd2 in erythrocytes, SYBR Green DNA, 72 h; at 28.5 µM (top of the series) unless noted
observationType: parasite growth remaining, % of DMSO control (lower = more inhibition) (%)

1. O=c1cc(N2CCOCC2)oc2c(-c3ccccc3)cccc12: 96
2. NCCCCNCCCN: 95.4
3. Cc1c(C(=O)NN2CCCCC2)nn(-c2ccc(Cl)cc2Cl)c1-c1ccc(Cl)cc1: 8.4
4. COc1cc(OC)c(C(=O)CCCN2CCCC2)c(OC)c1: 120
5. Cc1cccc(C#Cc2ccccc2)n1: 98.6
6. c1cnc2cc3c(cc2n1)C1CNCC3C1: 96.8
7. COc1cc(C(C)=O)ccc1OCCCN1CCC(c2noc3cc(F)ccc23)CC1: 54.6
8. OC(CN1CCN(c2cccc(Cl)c2)CC1)C(c1ccccc1)c1ccccc1 (configuration not stated): 90.9
9. O=C(O)c1cccc(-c2noc(-c3ccccc3F)n2)c1: 96.1
10. C[C@H](Cc1ccc(O)c(O)c1)[C@@H](C)Cc1ccc(O)c(O)c1: 17.2
11. Cc1cc(=O)c2c(O)c3c(O)cc(=O)c4c3c3c(cc(O)c1c23)C(C)(C)C=4O: 23.7
12. Cc1cc(C2CCCCC2)n(O)c(=O)c1: 7.36

====

- subjectOfTest: Phenylethanolamine N-methyltransferase (Homo sapiens) (UniProt P11086)
- Sequence (P11086 whole entry, looked up): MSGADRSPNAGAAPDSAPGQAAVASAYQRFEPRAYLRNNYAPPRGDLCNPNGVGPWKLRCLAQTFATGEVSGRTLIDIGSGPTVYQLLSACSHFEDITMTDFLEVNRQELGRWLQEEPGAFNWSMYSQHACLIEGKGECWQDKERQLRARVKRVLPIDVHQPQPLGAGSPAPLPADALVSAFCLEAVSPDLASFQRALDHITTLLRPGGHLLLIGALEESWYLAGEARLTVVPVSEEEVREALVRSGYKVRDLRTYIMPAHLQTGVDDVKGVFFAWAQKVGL
- assayRemarks: Confirmatory Screen for Target Class Profiling of Small Molecule Inhibitors of Methyltransferases (AID 1745852)
- testSettings: MTase-Glo luminescence, SAH detection, recombinant enzyme, stronger effect = lower value; measured here: PNMT max response unless noted
observationType: activity (%)

1. CC(C)c1ccc2c(c1)c(SC(C)(C)C)c(CC(C)(C)C(=O)O)n2Cc1ccc(Cl)cc1: -5.81
2. C[C@H](Cc1ccc(O)c(O)c1)[C@@H](C)Cc1ccc(O)c(O)c1: -61.1
3. Clc1ccc(C(Cn2ccnc2)OCc2c(Cl)cccc2Cl)c(Cl)c1 (configuration not stated): -12.3
4. CCN(CC)C(=S)SSC(=S)N(CC)CC: -2.02
5. COc1cc(Nc2c(C#N)cnc3cc(OCCCN4CCN(C)CC4)c(OC)cc23)c(Cl)cc1Cl: -96.9
6. N[C@@H](Cc1cc(I)c(Oc2cc(I)c(O)c(I)c2)c(I)c1)C(=O)O: -6.64
7. Oc1ccc2ccccc2c1SSc1c(O)ccc2ccccc12: 2.32

====

- assayRemarks: Quantitative High-Throughput drug screen in 47 multiple myeloma cell lines against the NCATS MIPE library collection: RPMI8226_ATCC cell viability assay (AID 1919871); further: nearly all actives have a fitted effect of over 30% in size
- testSettings: RPMI8226 myeloma viability, CellTiter-Glo ATP luminescence, 48 h; series mostly up to 45.8 µM
Records with an inconclusive call do not appear. The source made the active and inactive calls. Calls come from the whole dose curve; as a rule, active = well fitted cell-killing curve with a large enough effect; inconclusive = small, poorly fitted or top-dose-only effect, or effect the other way; inactive = no such curve, though single readings can be large or run the other way.
Outcome codes: active, inactive

1) O=C1c2c(O)cc(O)cc2OC(c2ccc(O)c(O)c2)C1O (stereo not given): inactive
2) CCOC(=O)C(C)Oc1cccc2c(=O)n(CC(=O)Nc3ccc4c(c3)OCCO4)ccc12 (stereo not given): inactive
3) Cc1cccc(-c2[nH]ncc2-c2ccc3ncccc3n2)n1: inactive
4) Oc1ccc2ccccc2c1SSc1c(O)ccc2ccccc12: active
5) Nc1ccc(S(N)(=O)=O)cc1: inactive
6) CN(C)[C@@H](CCOc1cccc2ccccc12)c1ccccc1: active
7) Cc1ccc(Nc2nccc(N(C)c3ccc4c(C)n(C)nc4c3)n2)cc1S(N)(=O)=O: active
8) CCC1=C(C)CN(C(=O)NCCc2ccc(S(=O)(=O)NC(=O)NC3CCC(C)CC3)cc2)C1=O (stereo not given): inactive
9) Cc1ccc(S(=O)(=O)NC(=O)NN2CC3CCCC3C2)cc1 (stereo not given): active
10) Cc1nc(-c2ccc(OCC(C)C)c(C#N)c2)sc1C(=O)O: inactive
11) CNC[C@@H](O)[C@@H](O)[C@H](O)[C@H](O)CO: inactive
12) NC(=NCc1ccccc1)NC(=O)c1nc(Cl)c(N)nc1N: inactive
13) COc1ccc(C2(C#N)CCC(C(=O)O)CC2)cc1OC1CCCC1 (stereo not given): inactive
14) CCOC(=O)C1=C[C@@H](OC(CC)CC)[C@H](NC(C)=O)[C@@H](N)C1: inactive
15) C[C@@H](N)C1CCC(C(=O)Nc2ccncc2)CC1 (stereo not given in full): inactive
16) Nc1nc(OCc2ccccc2)c2[nH]cnc2n1: inactive
17) COc1cc(C(C)=O)ccc1OCCCN1CCC(c2noc3cc(F)ccc23)CC1: active
18) CC(S)C(=O)NCC(=O)O (stereo not given): inactive
19) Clc1ccc(C(Cn2ccnc2)OCc2ccc(Sc3ccccc3)cc2)c(Cl)c1 (stereo not given): active
20) CCCCN(CCCC)CCC(O)c1cc2c(Cl)cc(Cl)cc2c2cc(C(F)(F)F)ccc12 (stereo not given): inactive
21) CCN(CC)CCOc1ccc(Nc2ncc3cc(-c4c(Cl)cccc4Cl)c(=O)n(C)c3n2)cc1: active
22) O=Nc1c(-c2c(O)[nH]c3cc(Br)ccc23)[nH]c2ccccc12: active
23) Cc1cc2c(s1)Nc1ccccc1N=C2N1CCN(C)CC1: inactive
24) CCCc1cc(=O)[nH]c(=S)[nH]1: inactive
25) C[Se]CCC(N)C(=O)O (stereo not given): inactive

====

- assayRemarks: qHTS of pediatric cancer cell lines to identify multiple opportunities for drug repurposing: Confirmatory screen for NB-EBc1 cells (AID 1347115);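 further: cells exposed to compound for 48 h before the viability read; nearly all actives have a fitted effect of over 45% in size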; further: potency means the concentration at half of the fitted maximal effect
- testSettings: NB-EBc1 neuroblastoma cells, viability (cytotoxicity); series mostly up to 45.9 µM
Inconclusive results are not listed. Calls of active or inactive are those of the source. The call rests on the fitted dose curve; in most records, active means well fitted cell-killing curve with a large enough effect; inconclusive means small, poorly fitted or top-dose-only effect, or effect the other way; inactive means no such curve, though single readings can be large or run the other way. Non-standard residues stand in square brackets, D forms with d. Residues, ends and D or L forms follow the SMILES beside them. *: point of attachment. Sta = CC(C)C[C@H](N)[C@@H](O)CC(=O)O; Isovaleryl = CC(C)CC(=O)*
observationType: Potency

1. Cc1cc(C2CCCCC2)n(O)c(=O)c1: 16.5 µM (active)
2. CCCCc1ccc2nc(NC(=O)OC)[nH]c2c1: 1.47 µM (active)
3. CN(C)c1ccc(O)c2c1C[C@H]1C[C@H]3[C@H](N(C)C)C(=O)C(C(N)=O)=C(O)[C@@]3(O)C(=O)C1=C2O: inactive
4. CS(=O)(=O)OCCCCOS(C)(=O)=O: inactive
5. Nc1ncn([C@H]2C[C@H](O)[C@@H](CO)O2)c(=O)n1: inactive
6. O=C(CCc1ccc(O)cc1)c1c(O)cc(O)cc1O: inactive
7. CCN(CCO)CCCC(C)Nc1ccnc2cc(Cl)ccc12 (centres undefined): inactive
8. Cc1nc(Nc2ncc(C(=O)Nc3c(C)cccc3Cl)s2)cc(N2CCN(CCO)CC2)n1: inactive
9. Oc1ccc(-c2nc(-c3ccc(F)cc3)c(-c3ccncc3)[nH]2)cc1: 5.22 µM (active)
10. CCN(CC)CCOc1ccc(Nc2ncc3cc(-c4c(Cl)cccc4Cl)c(=O)n(C)c3n2)cc1: 18.5 µM (active)
11. CC(C)CC(=O)N[C@H](C(=O)N[C@H](C(=O)N[C@@H](CC(C)C)[C@@H](O)CC(=O)N[C@@H](C)C(=O)N[C@@H](CC(C)C)[C@@H](O)CC(=O)O)C(C)C)C(C)C (Isovaleryl-VV[Sta]A[Sta]-OH): inactive
12. COc1cc(C(C)=O)ccc1OCCCN1CCC(c2noc3cc(F)ccc23)CC1: inactive
13. C[C@]12CCC(=O)C=C1CC[C@@H]1[C@H]2[C@@H](O)C[C@@]2(C)[C@H]1CC[C@]2(O)C(=O)CO: inactive
14. CC(C)C[C@H](NC(=O)[C@H](Cc1ccccc1)NC(=O)c1cnccn1)B(O)O: 0.0465 µM (active)

====

- assayRemarks: qHTS to identify inhibitors of the type 1 interferon - major histocompatibility complex class I in skeletal muscle: primary screen against the NCATS Mechanism Interrogation Plate v5.0 (MIPE) Libary (AID 1347411); further: nearly all actives have a fitted effect of over 65% in size
- testSettings: iHSKM cells + IFN-b, HiBiT-tagged MHC-I luminescence, 24 h; series mostly up to 45.8 µM
Inconclusive results are not listed. Activity calls are given as the source filed them. Calls come from the whole dose curve; as a rule, active = well fitted inhibition curve with a large enough effect; inconclusive = small, poorly fitted or top-dose-only effect; inactive = no such curve, though single readings can be large or run the other way.
Possible outcomes: true (1) (active), false (0) (inactive)

1) CCCc1cc(=O)[nH]c(=S)[nH]1: false (0)
2) CCc1nc(N)nc(N)c1-c1ccc(Cl)cc1: false (0)
3) CCC1=C(C)CN(C(=O)NCCc2ccc(S(=O)(=O)NC(=O)NC3CCC(C)CC3)cc2)C1=O (centres undefined): false (0)
4) CCCCCCCCCCCCCCCCCCCCCCO: false (0)
5) CCOc1cc(CC(=O)N[C@@H](CC(C)C)c2ccccc2N2CCCCC2)ccc1C(=O)O: false (0)
6) O=C(O)c1cc(=O)c2c(OCC(O)COc3cccc4oc(C(=O)O)cc(=O)c34)cccc2o1: false (0)
7) CCOC(=O)c1c(C)n(C)c2ccc(O)cc12: false (0)
8) CC(S)C(=O)NCC(=O)O (centres undefined): false (0)
9) O=C(NCCO[N+](=O)[O-])c1cccnc1: false (0)
10) Clc1ccc(C(Cn2ccnc2)OCc2ccsc2Cl)c(Cl)c1 (centres undefined): false (0)
11) O=c1c(O)c(-c2cc(O)c(O)c(O)c2)oc2cc(O)cc(O)c12: false (0)
12) C[Se]CCC(N)C(=O)O (centres undefined): false (0)
13) COc1cc2c(cc1OC)C1CC(=O)C(CC(C)C)CN1CC2 (centres undefined): false (0)
14) O=C1c2ccccc2-c2n[nH]c3cccc1c23: true (1)
15) CN(C)c1ccc(O)c2c1C[C@H]1C[C@H]3[C@H](N(C)C)C(=O)C(C(N)=O)=C(O)[C@@]3(O)C(=O)C1=C2O: false (0)
16) CCCS(=O)c1ccc2nc(NC(=O)OC)[nH]c2c1 (centres undefined): false (0)
17) O=C(NCC1CCCCN1)c1cc(OCC(F)(F)F)ccc1OCC(F)(F)F (centres undefined): false (0)
18) CC1=C(C)C(=O)C(C(CCCCCC(=O)O)c2ccccc2)=C(C)C1=O (centres undefined): false (0)
19) COc1c2occc2cc2ccc(=O)oc12: false (0)
20) O=C1c2c(O)cc(O)cc2OC(c2ccc(O)c(O)c2)C1O (centres undefined): false (0)
21) Cc1cc2c(s1)Nc1ccccc1N=C2N1CCN(C)CC1: false (0)
22) Cc1ccc(S(=O)(=O)NC(=O)NN2CC3CCCC3C2)cc1 (centres undefined): false (0)
23) C[C@H](Cc1ccc(O)c(O)c1)[C@@H](C)Cc1ccc(O)c(O)c1: false (0)
24) Nc1nc(Cl)nc2c1ncn2[C@H]1C[C@H](O)[C@@H](CO)O1: false (0)
